// data source = ChEMBL document CHEMBL1201862

system: HL-60; experiment: NCI tumour cell line growth inhibition, 48 h
Activity calls are given as the source filed them. Cut-off read from the data, not from the text of the source: active = GI50 up to about 1.1 µM and inactive = higher.
assayMetric: GI50

molecule	reportedMeasurement
CS(=O)(=O)N(N(CCCl)S(=O)(=O)c1ccccc1)S(C)(=O)=O	> 100 µM (inactive)
O=C1OCc2nc3c(c(-c4ccccc4C(F)(F)F)c21)C(=O)OC3	> 100 µM (inactive)
Cc1nc(-n2nc(-c3ccccc3)cc2-c2ccccc2)sc1C(=O)CC(=O)C(=O)Nc1ccc(Cl)c(Cl)c1	> 100 µM (inactive)
O=C1CCCC1CC(CN1CCOCC1)Sc1nnnn1-c1ccccc1 (centres undefined)	16.7 µM (inactive)
O=c1ccn(C/C=C/c2ccccc2)c(=S)n1C/C=C/c1ccccc1	13.8 µM (inactive)
Cc1c(OCc2cccc3ccccc23)ccc2c(O)cc(=S)oc12	19.4 µM (inactive)
CN(C)c1ccc(/C=C2\N=C(c3ccc([N+](=O)[O-])cc3)OC2=O)cc1	41 µM (inactive)
CN1C2CC(=O)CC1[C@@H]1OC(c3ccccc3)O[C@H]21 (some centres undefined)	> 100 µM (inactive)
C[C@H](CCC(=O)NN)[C@H]1CC[C@H]2[C@@H]3CC[C@@H]4C[C@H](O)CC[C@]4(C)[C@H]3CC[C@]12C	8.53 µM (inactive)

---

system: 786-0; experiment: NCI tumour cell line growth inhibition, 48 h
Active and inactive are the calls of the source. Cut-off read from the data, not from the text of the source: active = GI50 up to about 1.1 µM and inactive = higher.
assayMetric: GI50

compound	testSystem	assayMetric	reportedMeasurement
CC1=C(/C=C/C(C)=C/C=C/C(C)=C/CO)C(C)(C)CCC1 [RETINOL]	786-0	GI50	17.2 µM (inactive)
O=C(OC[C@H]1C[C@H]2C(=O)OCCC[C@H]2O1)c1ccccc1	786-0	GI50	> 100 µM (inactive)
C/C1=C/C2=CC(C)C[C@@H]2C(=O)[C@]2(C)C(=O)CC(C)(C)[C@H]2CC1=O (stereo partly specified)	786-0	GI50	> 50 µM (inactive)
NC(=O)c1csc(C2(O)COC(CO)C2O)n1 (stereo unspecified)	786-0	GI50	> 100 µM (inactive)
C=CC(Cl)(CBr)CCC(Br)C(C)(C)Cl (stereo unspecified)	786-0	GI50	11.7 µM (inactive)
CC(C)(C)NC1=NC(C(F)(F)F)(C(F)(F)F)NC(=O)N1	786-0	GI50	52.4 µM (inactive)
CN(C(=O)C12C3C4C1C1C2C3C41C(=O)O)C(C)(C)C (stereo unspecified)	786-0	GI50	> 100 µM (inactive)
CCOP(=O)(OCC)/C(C#N)=C/c1cccn1N(C)C	786-0	GI50	> 100 µM (inactive)
O=C(c1cc2c(C(F)(F)F)onc2c2ccccc12)C(F)(F)F	786-0	GI50	1.93 µM (inactive)
COc1cc(/C=C2/SC(c3ccccc3)N(c3cccc([N+](=O)[O-])c3)C2=O)cc(OC)c1OC (stereo unspecified)	786-0	GI50	> 100 µM (inactive)
Cc1ccc([N+](=O)[O-])c2c(NCCCN(C)C)ccnc12	786-0	GI50	44.8 µM (inactive)

---

system: SR; assay: NCI tumour cell line growth inhibition, 48 h
Activity calls are given as the source filed them. Rule as the data show it: active = GI50 up to about 1.1 µM and inactive = higher.
Outcomes: yes (1) for active, no (0) for inactive

molecule	cat
CN(C)c1ccc(/C=C2\N=C(c3ccc([N+](=O)[O-])cc3)OC2=O)cc1	no (0)
COc1cc(-c2oc3ccccc3c(=O)c2O)cc(OC)c1OC	no (0)
COC(=O)[C@@H]1Cc2cc(O)c(O)cc2C2(CCN(C)CC2)O1	no (0)
C=C(CN(CC)CC)C1(c2ccccc2)CC2(CCCC2)C(=O)O1 (stereo not given)	no (0)
CC1(c2cccc(C3CCC4(C=CC3=O)OCCO4)c2)OCCO1 (stereo not given)	no (0)
NNC(=O)c1ccccc1NC(=O)/C(=C/c1ccccc1O)NC(=O)c1ccccc1	yes (1)
CC(C)(C)NC1=NC(C(F)(F)F)(C(F)(F)F)NC(=O)N1	no (0)
OCCCCCNc1cc(O)nc(O)n1	no (0)
Cc1cn([C@H]2C[C@@H](N3C(=O)c4ccccc4C3=O)[C@@H](CO[Si](C)(C)C(C)(C)C)O2)c(=O)[nH]c1=O	no (0)
COc1ccc2c(-c3csc(-c4c[nH]c5ccccc45)n3)c[nH]c2c1	no (0)

---

tested on: NCI/ADR-RES; assay: NCI tumour cell line growth inhibition, 48 h
Activity calls are given as the source filed them. Cut-off read from the data, not from the text of the source: active = GI50 up to about 1.1 µM and inactive = higher.
Outcomes: active, inactive

compound	cat
CC(=O)O[C@H]1CC[C@@]2(C)C(=CC[C@@H]3[C@@H]2CC[C@]2(C)c4c(C)nn(-c5ccccc5)c4C[C@@H]32)C1	inactive
CC(C)(C)NC1=NC(C(F)(F)F)(C(F)(F)F)NC(=O)N1	inactive
O=C(O)c1c(Cl)c(Cl)c(Cl)c(Cl)c1C(=O)Nc1ccc2cn[nH]c2c1	inactive
CSc1c(C)[n+]([O-])c2cc(Cl)c(Cl)cc2[n+]1[O-]	inactive
CC(=O)N1c2ccccc2C(C)(C)OC1C(Cl)(Cl)Cl (stereo unspecified)	inactive
CC1(C)N(OC2CCCCO2)C(c2ccccc2)C(c2ccccc2)=[N+]1[O-] (stereo unspecified)	inactive
COc1ccc(C2C3=C(CCCC3=O)N(c3ccccc3)C3=C2C(=O)CCC3)cc1	inactive
CN(C)CCNC(=O)c1ccc(NCCCN(C)CCCNc2ccc(C(=O)NCCN(C)C)c3nc4ccc([N+](=O)[O-])cc4c(O)c23)c2c(O)c3cc([N+](=O)[O-])ccc3nc12	inactive
COC1(OC)CC(CO)(CNc2nc(N)nc(Cl)c2C=O)C1	inactive
CC(C)C1=C(Cc2ccccc2)C(=O)O/C1=C\c1cc(Cl)c(O)c(Cl)c1	inactive
CN1CCN(C2=CC(=O)c3c(O)ccc(O)c3C2=O)CC1	active
COCC1OC(OC2OCC3OC4(OCC(O)(C(C)OC)C5OCOC54)OC3C2OC)C(OC)C(O)C1OC1OC(C)C(OC)C(OC2OC(C)C3OC4(CC(O)C(OC5CC(OC6CC(C)([N+](=O)[O-])C(OC)C(C)O6)C(OC(=O)c6c(C)c(Cl)c(O)c(Cl)c6OC)C(C)O5)C(C)O4)OC3(C)C2O)C1O (stereo unspecified)	inactive
ClCCN(CCCl)c1ccc(CNCCCNCc2ccc(N(CCCl)CCCl)cc2)cc1	inactive
O=[N+]([O-])c1ccc(Oc2c(Cl)cc(S(=O)(=O)N/C(=N\O)Nc3ccc(Cl)cc3)cc2Cl)cc1	inactive
CC1(C)OCC2OC3([C@H]4OC(C)(C)O[C@@H]4CO)OC(C)(C)OC3C2O1 (stereo partly specified)	inactive
COc1ccc(/C=C(\C#N)c2ccccn2)cc1OC	inactive
O=C(OC[C@H]1C[C@H]2C(=O)OCCC[C@H]2O1)c1ccccc1	inactive
COc1cc([C@@H]2c3cc4c(cc3[C@@H](OC3OC5COC(C)OC5C(O)C3O)[C@H]3COC(=O)[C@H]23)OCO4)cc(OC)c1O (stereo partly specified)	inactive
C(=C\Nc1ccc(-c2ccccc2)cc1)/C=N/c1ccc(-c2ccccc2)cc1	inactive
COc1cc2c3c(c1OC)-c1cc4c(cc1CC3(C#N)N(C(=O)c1ccccc1)CC2)OCO4 (stereo unspecified)	inactive
CCOC(=O)c1cc(C2(O)CCN(Cc3ccccc3)C2=O)c(-c2cc(C)no2)[nH]1 (stereo unspecified)	inactive
O=c1[nH]c2nc[nH]c2c(=O)n1C1CCCCC1	inactive
CN(CCO)/N=N/c1n[nH]cc1C(N)=O	inactive
O=C1c2ccsc2-c2cccc3cccc1c23.O=C1c2sccc2-c2cccc3cccc1c23	inactive
Cc1n[nH]c(=O)c2cc(-c3ccccc3)[nH]c12	inactive
O=C(O[C@H](/C=C/c1ccccc1)P1(=O)N(Cc2ccccc2)[C@@H]2CCCC[C@H]2N1Cc1ccccc1)c1ccccc1	inactive
CC(NC(=O)/C(=C/c1ccccc1O)NC(=O)c1ccccc1)C(=O)O (stereo unspecified)	inactive
COc1cc2c(cc1OC)C13CCN4CC5=CCOC6CC(=O)N2C1C6C5CC43O (stereo unspecified)	inactive
CC(=O)Oc1cc(OC(C)=O)c2c(c1C)CC[C@@H]1[C@@H]2CC[C@]2(C)[C@@H](OC(C)=O)CC[C@@H]12	inactive
O=C(/C=C/c1ccc(O)c(O)c1)OCCc1ccc2ccccc2c1	inactive
CCCCCCCCCCCCCCCCCCNc1ccn(C2OC(CO)C(OP(=O)(O)OCC(COP(=O)(O)OCC3OC(n4cc(F)c(NCCCCCCCCCCCCCCCCCC)nc4=O)CC3O)OC(=O)CCCCCCCCCCCCCCC)C2O)c(=O)n1 (stereo unspecified)	inactive
Cc1ccc(S(=O)(=O)NC(=O)NCC(=O)O)cc1	inactive
O=C1NC2ON=C(c3ccccc3)C2C2ON=C(c3ccccc3)N12 (stereo unspecified)	inactive
c1c[nH]c(-c2ccc(-c3ccc[nH]3)c3nsnc23)c1	inactive
O=C(O)c1ccccc1Sc1ccc(C=C2NC(=S)N(c3ccccc3)C2=O)s1	inactive
O=c1[nH]c(=O)n(COCc2ccccc2)c2ccsc12	inactive
